Test system: Trypanosoma cruzi
method_summary: Antitrypanosomal activity against Trypanosoma cruzi Tulahuen infected in mouse 3T3 cells
Assay type: functional, organism-based
test_settings: NIH3T3
Kindly state pEC50 for each of the entries shown.
One number for each entry, as −log10 of the molar value.

# annotated cases, reported pEC50 shown
| compound | study_system | recorded_measurement |
| --- | --- | --- |
| COC(c1ccc(Cl)cc1)(c1ccc2cncc(-c3c(F)cccc3F)c2c1)c1cncn1C (stereo not given) | Trypanosoma cruzi | 9.05 |
| CC[C@@H]([C@H](C)O)n1ncn(-c2ccc(N3CCN(c4ccc(OC[C@@H]5CO[C@@](Cn6cncn6)(c6ccc(F)cc6F)C5)cc4)CC3)cc2)c1=O [POSACONAZOLE] | Trypanosoma cruzi | 9.52 |
| COC(c1ccc(Cl)cc1)(c1ccc2cncc(-c3cccc(Cl)c3)c2c1)c1cncn1C (stereo not given) | Trypanosoma cruzi | 9.30 |
| COC(c1ccc(Cl)cc1)(c1ccc2cnccc2c1)c1cncn1C (stereo not given) | Trypanosoma cruzi | 6.92 |

Q. I am curious: what pEC50 value has been reported for Cn1cncc1[C@@](N)(c1ccc(Cl)cc1)c1ccc2c(c1)c(-c1cccc(Cl)c1)cc(=O)n2C [TIPIFARNIB] ?
A. 8.40
